Test: Acute toxicity test, mouse
Conditions: in vivo, sc, subcutaneous
READOUT LABEL: LD50

[
  {
    "COMPOUND": "CN(C)C(=O)c1cc(C(=O)N(C)C)c2c(n1)C(=O)C(=O)c1cc(C(=O)N(C)C)[nH]c1-2 [PQQ tri(dimethylamide)]",
    "READOUT LABEL": "LD50",
    "ASSAY RESULT": "> 1500 mg/kg"
  }
]

* * *

Assay: Acute toxicity test, rat
Conditions: in vivo, oral

[
  {
    "MOLECULE": "CN(C)C(=O)c1cc(C(=O)N(C)C)c2c(n1)C(=O)C(=O)c1cc(C(=O)N(C)C)[nH]c1-2 [PQQ tri(dimethylamide)]",
    "LD50": "> 5000 mg/kg"
  }
]
